Test system: Hs-578T
protocol: NCI tumour cell line growth inhibition, 48 h
The source made the active and inactive calls. No stated cut-off is given here; in the data, active = GI50 up to about 1.1 µM and inactive = higher.
Listed below: GI50 values for each entry.

Completed entries (count: 5):
CNC(=O)N(C)/N=N/CCCl :: > 100 µM (inactive)
COC(=O)[C@H](Cc1ccccc1)NC(=O)N(CCC#N)CCN(C(=O)N[C@@H](Cc1ccccc1)C(=O)OC)c1ccccc1 :: 32.7 µM (inactive)
CCOC(=O)[C@@]1(C)CC(O)C(=O)N1C (some centres not stated) :: > 100 µM (inactive)
Fc1ccc(F)c(/C=N/C23CC4CC(CC(C4)C2)C3)c1 :: > 10 µM (inactive)
C(=C\c1ccccc1)/C=N/c1ccc2c(c1)Cc1ccccc1-2 :: 50.8 µM (inactive)

Fill in: GI50 of `NC(=O)[N+](=CC(=S)Nc1ccccc1Cl)C(N)=O` is ___
> 100 µM (inactive)

Fill in: GI50 of `O=C(C(=O)n1ccc2ccccc21)n1ccc2ccccc21` is ___
27.5 µM (inactive)

Fill in: GI50 of CC1(C)OP(=O)(c2ccccc2)C=C1Br (configuration not stated) is ___
> 100 µM (inactive)

Fill in: GI50 of `CCC/C(Cl)=N\OC(=O)Nc1ccc(F)cc1` is ___
41.5 µM (inactive)

Fill in: GI50 of C#CCNC(CSSCC(N)C(=O)O)C(=O)O (configuration not stated) is ___
> 100 µM (inactive)

Fill in: GI50 of Clc1cccc(Cl)c1C1ON=C(c2ccccc2)N1C12CC3CC(CC(C3)C1)C2 (configuration not stated) is ___
24.2 µM (inactive)

Fill in: GI50 of `O=C1C=C(Nc2nc(O)cc(C(=O)O)n2)c2ccccc2C1=O` is ___
> 100 µM (inactive)

Fill in: GI50 of CC(=O)c1c2c(cc3c1CC1(Cc4ccccc4C1=O)C3)CCC2 (configuration not stated) is ___
28.8 µM (inactive)

---

Listed below: GI50 values for each entry.
Tested on: UACC-62
protocol: NCI tumour cell line growth inhibition, 48 h
Active and inactive are the calls of the source. Rule as the data show it: active = GI50 up to about 1.1 µM and inactive = higher.

Fill in: GI50 of `C=Cc1ccc(C)[n+](C[Si](C)(C)O[Si](C)(C)C)c1` is ___
> 100 µM (inactive)

---

System: T47D
protocol: NCI tumour cell line growth inhibition, 48 h
Activity calls are given as the source filed them. Cut-off read from the data, not from the text of the source: active = GI50 up to about 1.1 µM and inactive = higher.
Respond only with the outcome that fits, drawn from t (active), f (inactive)

CC1(C)CN=C(Nc2cccc(C(F)(F)F)c2)S1 :: f
S=C1SCN(Cc2ccco2)CN1c1ccc(Br)cc1 :: f
NCCCCNCCCNC(=O)c1csc(-c2nc(CCN)sc2Cl)n1 :: f
Oc1c(/N=N/c2ccccc2)c2ccccc2c2ccc3ccccc3c12 :: f
CCOC(=O)C(NC(=O)c1ccccc1)(Nc1cc(C)on1)C(F)(F)F (stereo not given) :: f
CC(=O)/C(=C\n1c(=S)[nH]c2ccc([N+](=O)[O-])cc21)C(=O)Nc1ccccc1C :: f
C=CCNC1=C2C[C@@H](C)C[C@@H](OC)[C@H](OC(=O)CN(C)C)[C@H](C)/C=C(\C)[C@@H](OC(N)=O)[C@H](OC)/C=C\C=C(/C)C(=O)NC(=CC1=O)C2=O :: f
COc1ccc(C(O)CC(O)(C(F)(F)F)C(F)(F)F)cc1 (stereo not given) :: f
Cc1c(F)c(N)c2c(=O)cc(-c3ccc(NC(=O)[C@@H](N)CCCCN)c(F)c3)oc2c1F :: t

# outcome recorded in this test, key = `CCc1ccccc1NC(=O)/C=C/c1ccccc1`
f

---

System: KM12
protocol: NCI tumour cell line growth inhibition, 48 h
Calls of active or inactive are those of the source. No stated cut-off is given here; in the data, active = GI50 up to about 1.1 µM and inactive = higher.
observed-property: GI50

CN1C(=O)C(C(N)=O)C2CC1(C)Oc1ccccc12 (stereo not drawn) :: > 100 µM (inactive)
COC1CC(OC2C(C)OC(OC3C(C)OC(OC4C(C)OC(O[C@H]5CC[C@@]6(C)C(=CC[C@]7(O)[C@@H]6C[C@@H](OC(=O)/C=C/c6ccccc6)[C@@]6(C)[C@]7(O)CC[C@@]6(O)C(C)=O)C5)CC4OC)CC3OC)CC2OC)OC(C)C1O (stereo partly drawn) :: 10.1 µM (inactive)
CCOc1ccc2c(c1)[n+]([O-])c(-c1ccc(Br)cc1)c(N)[n+]2[O-] :: 85.5 µM (inactive)
CC(=O)O[C@H]1CC[C@H]2[C@@H]3CCc4cc(O)c(I)cc4[C@H]3CC[C@]12C :: 12 µM (inactive)
CC(=O)OCC1OC(c2c(OC(C)=O)cc(C)c3c(=O)cc(/C(C(C)=O)=C(\C)O)oc23)C(OC(C)=O)C(OC(C)=O)C1OC(C)=O (stereo not drawn) :: > 100 µM (inactive)
O=C(N/C(=C/c1cccc([N+](=O)[O-])c1)c1nc2cc(Cl)ccc2[nH]1)c1ccccc1 :: 5.41 µM (inactive)
C[C@H](NC(=O)OC1C2C=CC(O)C1CC2)c1ccccc1 (stereo partly drawn) :: > 100 µM (inactive)

# next molecule below
Recorded GI50 for `C=Cc1ccc(C)[n+](C[Si](C)(C)O[Si](C)(C)C)c1` with KM12, please?
> 100 µM (inactive)

---

Test system: U-251
protocol: NCI tumour cell line growth inhibition, 48 h
Activity calls are given as the source filed them. Cut-off read from the data, not from the text of the source: active = GI50 up to about 1.1 µM and inactive = higher.
observed-property: GI50

Completed entries (count: 3):
COC(=O)C1=C(O)C(C(=O)OC)[C@]2(O)[C@H](C(=O)OC)[C@H]1C[C@@H](c1ccccc1OC)[C@H]2C(=O)OC (stereo not given in full) :: 6.56 µM (inactive)
OCCNc1nc2c(N3CCCC3)nc(N3CCNCC3)nc2nc1NCc1ccccc1 :: 11.1 µM (inactive)
CSc1c(C#N)c(O)n(-c2ccc(Cl)cc2)c(=O)c1C(C)=O :: > 100 µM (inactive)

Fill in: GI50 of CC1=C(c2ccccc2)C(c2ccccc2)=C(c2ccccc2)C2(c3ccccc3)C(=O)C(C)CN12 (stereo not given) is ___
30.3 µM (inactive)

Fill in: GI50 of C=C(CCOC)CCC1CCCCC(=C)C1=O (stereo not given) is ___
> 100 µM (inactive)

---

Test system: KM12
protocol: NCI tumour cell line growth inhibition, 48 h
Calls of active or inactive are those of the source. Rule as the data show it: active = GI50 up to about 1.1 µM and inactive = higher.
Respond only with the outcome that fits, drawn from 1 for active, -1 for inactive

CC(=O)Nc1ccc2c3c(cc(O)c2c1)N(C(=O)CCCC(=O)N1CC(CCl)c2c1cc(O)c1cc(NC(C)=O)ccc21)CC3CCl (stereo not given) :: 1
Cc1ccc(-n2cnc(C(=N)C#N)c2N)cc1 :: -1
CCOP(=O)(C[S+](C)[O-])O[C@@H]1C[C@H](C)CC[C@H]1C(C)C (stereo not given in full) :: -1
CCOC(=O)C(NC(=O)c1ccccc1)(Nc1cc(C)on1)C(F)(F)F (stereo not given) :: -1

Attention now turns to another entry.
# outcome recorded in this test, key = NC1=NN(c2ccccc2)C(=O)C1C(=O)C(=O)Nc1ccc(Cl)c(Cl)c1 (stereo not given)
-1

---

Tested on: OVCAR-4
protocol: NCI tumour cell line growth inhibition, 48 h
Activity calls are given as the source filed them. No stated cut-off is given here; in the data, active = GI50 up to about 1.1 µM and inactive = higher.
Respond only with the outcome that fits, drawn from active, inactive

Reference set (5 entries):
CCOC(=O)C1=C(C)N(NC(=O)OC)C2(N)N(NC(=O)OC)C(C)=C(C(=O)OCC)C12C#N (stereo unspecified) :: inactive
CSc1nc(NC(C)C)c2c(n1)Sc1nc3ccccc3n1N=C2 :: inactive
CS(=O)(=O)OCCN1CCN(C(=O)c2ccc(Cl)c3c(Nc4ccc(S(=O)(=O)N=C(N)N)cc4)c4ccccc4nc23)CC1 :: inactive
OCCNc1nc2c(N3CCCC3)nc(N3CCNCC3)nc2nc1NCc1ccccc1 :: inactive
O=C(O)CNS(=O)(=O)c1ccc(NC(=O)c2ccc([N+](=O)[O-])cc2)cc1 :: inactive

# outcome recorded in this test, key = `N#C/C(N)=C(C#N)/N=C/N`
inactive

# outcome recorded in this test, key = C[C@@H]1CC2(C[C@@H](C)C3[C@@H](CC4(C)CCCC5C6=CC(O)(CC[C@]34C)OC6=CC(=O)OC5(C)C)O2)OC1=O (stereo partly specified)
inactive

---

Test system: RPMI-8226
protocol: NCI tumour cell line growth inhibition, 48 h
Activity calls are given as the source filed them. Rule as the data show it: active = GI50 up to about 1.1 µM and inactive = higher.
observed-property: GI50

Completed entries (count: 6):
CC(=O)O[C@H]1CC[C@H]2[C@@H]3CCc4cc(O)c(I)cc4[C@H]3CC[C@]12C :: 12.4 µM (inactive)
CN1C(=O)CN2C(Cl)(Cl)C2(c2ccccc2F)c2cc([N+](=O)[O-])ccc21 (stereo unspecified) :: 40.8 µM (inactive)
CC(CN(C)C)C(C#N)(c1ccccc1)c1ccccc1 (stereo unspecified) :: 78.2 µM (inactive)
Cc1cc2oc(=N)c(C#N)c(C)c2cc1C :: 42.7 µM (inactive)
CCOc1ccc(Nc2nc(C)c(C(=O)/C=C/c3ccc(Cl)cc3Cl)s2)cc1 :: 46.9 µM (inactive)
O=C1CC(n2cccc2)c2c(Br)sc(Br)c21 (stereo unspecified) :: 8.24 µM (inactive)

Recorded GI50 for `Nc1ncc(Br)c(NCC2(CO)CCC2)n1` with RPMI-8226, please?
42.8 µM (inactive)

Recorded GI50 for CC(C)(C)[Si](C)(C)OCCCCC1CC2(S(=O)(=O)C3=CC=C=C=C3)ON1CC2S(=O)(=O)c1ccccc1 (stereo unspecified) with RPMI-8226, please?
> 100 µM (inactive)

Recorded GI50 for `O=C(C(=O)n1ccc2ccccc21)n1ccc2ccccc21` with RPMI-8226, please?
> 100 µM (inactive)

Recorded GI50 for `O=C1C[C@@H]2[C@@H](CCC23CCCC3)N1` with RPMI-8226, please?
> 100 µM (inactive)

Recorded GI50 for COc1cc(C2SCC(=O)N2c2ccc(NC(C)=O)cc2)cc(OC)c1OC (stereo unspecified) with RPMI-8226, please?
> 100 µM (inactive)
